- Test system: SGC-7901 gastric cancer cells
- Protocol text: Growth inhibition of cancer cell lines (MTS / WST assay), SGC-7901
- Type: cell-based
- Recorded conditions: Homo sapiens, SGC-7901, 72 h
Measured attribute: GI50 (µM)

| Molecule | GI50, µM |
| --- | --- |
| Cc1cc(NC(=O)C2CN(C)CC2c2ccc(/C=C/C(=O)Nc3ccccc3N)cc2)ccc1Cl (stereo not shown) | 0.32 |
| Nc1ccccc1NC(=O)/C=C/c1ccc(C2CN(CCF)CC2C(=O)Nc2ccc(Cl)cc2)cc1 (racemic) | 0.42 |
| CN1CC(C(=O)Nc2ccc(F)cc2)C(c2ccc(/C=C/C(=O)Nc3ccccc3N)nc2)C1 (stereo not shown) | 0.49 |
| CN1CC(c2ccc(/C=C/C(=O)Nc3ccccc3N)cc2)C(c2nc3cc(F)ccc3[nH]2)C1 (stereo not shown) | 0.35 |

----------
- Test system: SMMC-7721 liver cancer cells
- Protocol text: Growth inhibition of cancer cell lines (MTS / WST assay), SMMC-7721
- Assay type: cell-based
- Recorded conditions: Homo sapiens, SMMC-7721, 72 h, read-out: SMMC GI90
Measured attribute: IC90 (µM)

| Molecule | IC90 [µM] |
| --- | --- |
| CC(C)N1CC(C(=O)Nc2ccc(Cl)cc2)C(c2ccc(/C=C/C(=O)Nc3ccccc3N)cc2)C1 (stereo not drawn) [Example 16-17] | 2.45 |
| COc1ccc(NC(=O)C2CN(C)CC2c2ccc(/C=C/C(=O)Nc3ccccc3N)cc2)cc1 (stereo not drawn) [Example 5-33] | 2.21 |
| CN1CC(c2ccc(/C=C/C(=O)Nc3ccccc3N)cc2)C(c2nc3ccccc3[nH]2)C1 (stereo not drawn) [Example 11-3] | 2.2 |

----------
- Tested on: SGC-7901 gastric cancer cells
- Protocol text: Growth inhibition of cancer cell lines (MTS / WST assay), SGC-7901
- Assay type: cell-based
- Recorded conditions: Homo sapiens, SGC-7901, 72 h
Measured attribute: GI50 (nM)

| Molecule | GI50 [nM] |
| --- | --- |
| CN1CC(C(=O)Nc2ccccc2)C(c2ccc(/C=C/C(=O)Nc3ccccc3N)cc2)C1 (stereo not shown) | 410 |
| CC(C)N1CC(C(=O)Nc2ccc(Cl)cc2)C(c2ccc(/C=C/C(=O)Nc3ccccc3N)cc2)C1 (stereo not shown) | 440 |
| CC(C)N1CC(C(=O)Nc2ccc(F)cc2)C(c2ccc(/C=C/C(=O)Nc3ccccc3N)cc2)C1 (stereo not shown) | 290 |
| CN1CC(c2ccc(/C=C/C(=O)Nc3ccccc3N)cc2)C(c2nc3ccccc3[nH]2)C1 (stereo not shown) | 320 |
| CN1CC(C(=O)Nc2ccc(F)c(Cl)c2)C(c2ccc(/C=C/C(=O)Nc3ccccc3N)cc2)C1 (stereo not shown) | 340 |
| CC(C)(C)N1CC(C(=O)Nc2ccc(F)cc2)C(c2ccc(/C=C/C(=O)Nc3ccccc3N)cc2)C1 (stereo not shown) | 310 |
| CCN1CC(C(=O)Nc2ccc(Cl)cc2)C(c2ccc(/C=C/C(=O)Nc3ccccc3N)cc2)C1 (stereo not shown) | 400 |

----------
- Test system: SMMC-7721 liver cancer cells
- Protocol text: Growth inhibition of cancer cell lines (MTS / WST assay), SMMC-7721
- Format: cell-based
- Recorded conditions: Homo sapiens, SMMC-7721, 72 h, read-out: SMMC GI90
- Experimental: The novel compounds of the present invention were tested for their ability to inhibit growth of various cancer cell lines using in vitro growth inhibition assays described below. Cells were seeded in 96-well culture plates (200 microliters/well at different seeding concentrations depending on cell type) and incubated overnight at 37 degrees Celsius in 5% CO2. […] Similar to MTS assay except that the developer is the CCK-8 reagent (Dojindo) and the plate reader is set to 450 nm absorbance. […]
Measured attribute: IC90 (µM)

Answered examples (5):
| Compound | Measured target | Measured attribute | Reported measurement |
| --- | --- | --- | --- |
| CN1CC(C(=O)Nc2ccc(F)cc2)C(c2ccc(/C=C/C(=O)Nc3ccccc3N)cc2F)C1 (stereo not shown) | SMMC-7721 liver cancer cells | IC90 | 3.4 |
| CN1CC(c2ccc(/C=C/C(=O)Nc3ccccc3N)cc2)C(c2ncc(-c3ccccc3)[nH]2)C1 (stereo not shown) | SMMC-7721 liver cancer cells | IC90 | 1.69 |
| Nc1ccccc1NC(=O)/C=C/c1ccc(C2CN(C3CCOCC3)CC2C(=O)Nc2ccc(Cl)cc2)cc1 (stereo not shown) | SMMC-7721 liver cancer cells | IC90 | 1.87 |
| CN1CC(C(=O)Nc2ccc(F)cc2)C(c2ccc(/C=C/C(=O)Nc3ccccc3N)cc2)C1 (racemic) | SMMC-7721 liver cancer cells | IC90 | 1.95 |
| CC(C)(CO)N1CC(C(=O)Nc2ccc(Cl)cc2)C(c2ccc(/C=C/C(=O)Nc3ccccc3N)cc2)C1 (racemic) | SMMC-7721 liver cancer cells | IC90 | 1.53 |

[1] Cc1cc(NC(=O)C2CN(C)CC2c2ccc(/C=C/C(=O)Nc3ccccc3N)cc2)ccc1Cl (stereo not shown)
[2] Nc1ccccc1NC(=O)/C=C/c1ccc(C2CN(CCF)CC2C(=O)Nc2ccc(Cl)cc2)cc1 (racemic)
Hey, between 1 and 2 which has a smaller measured IC90? Please respond with the label that marks your chosen entry.
1

----------
- Test system: SMMC-7721 liver cancer cells
- Protocol text: Growth inhibition of cancer cell lines (MTS / WST assay), SMMC-7721
- Format: cell-based
- Recorded conditions: Homo sapiens, SMMC-7721, 72 h, read-out: SMMC GI90
Measured attribute: IC90 (µM)

Answered examples (4):
| Compound | Measured target | Result units | IC90 |
| --- | --- | --- | --- |
| CN1CC(C(=O)Nc2ccc(Br)cc2)C(c2ccc(/C=C/C(=O)Nc3ccccc3N)cc2)C1 (stereo not shown) [Example 5-20] | SMMC-7721 liver cancer cells | µM | 1.62 |
| CN1C[C@@H](C(=O)Nc2ccc(F)cc2)[C@H](c2ccc(/C=C/C(=O)Nc3ccccc3N)cc2)C1 [Example 5-8] | SMMC-7721 liver cancer cells | µM | 3.96 |
| CN1CC(C(=O)Nc2ccc(F)c(Cl)c2)C(c2ccc(/C=C/C(=O)Nc3ccccc3N)cc2)C1 (stereo not shown) [Example 5-30] | SMMC-7721 liver cancer cells | µM | 2.34 |
| CC(C)(C)N1CC(C(=O)Nc2ccc(Cl)cc2)C(c2ccc(/C=C/C(=O)Nc3ccccc3N)cc2)C1 (racemic) [Example 36] | SMMC-7721 liver cancer cells | µM | 3.29 |

[A] CN1CC(c2ccc(/C=C/C(=O)Nc3ccccc3N)cc2)C(c2nc3cc(F)ccc3[nH]2)C1 (stereo not shown) [Example 11-6]
[B] CN1CC(C(=O)Nc2ccc(F)cc2)C(c2ccc(/C=C/C(=O)Nc3ccccc3N)nc2)C1 (stereo not shown) [Example 73-2]
[C] Cc1cccc(NC(=O)C2CN(C)CC2c2ccc(/C=C/C(=O)Nc3ccccc3N)cc2)c1 (stereo not shown) [Example 5-28]
Rank the items in ascending order with respect to IC90. Please reply with the labels ordered as requested. Many thanks.
C, A, B

----------
- Tested on: histone deacetylase (HeLa nuclear extract)
- Protocol text: HeLa extract HDAC fluorometric assay
- Type: biochemical
- Recorded conditions: compound at 30 micromolar; relative to SNDX-275
Measured attribute: HD RP30 (relative inhibitory potency compared with SNDX-275)

| Compound | Measured target | Reported measurement |
| --- | --- | --- |
| CN1CC(C(=O)Nc2ccc(Br)cc2)C(c2ccc(/C=C/C(=O)Nc3ccccc3N)cc2)C1 (centres unmarked) | histone deacetylase (HeLa nuclear extract) | 1.62 |
| CC(C)N1CC(C(=O)Nc2ccc(F)cc2)C(c2ccc(/C=C/C(=O)Nc3ccccc3N)cc2)C1 (centres unmarked) | histone deacetylase (HeLa nuclear extract) | 1.51 |
| CN1C[C@@H](C(=O)Nc2ccc(Cl)cc2)[C@H](c2ccc(/C=C/C(=O)Nc3ccccc3N)cc2)C1 | histone deacetylase (HeLa nuclear extract) | 1.73 |
| CN1CC(c2ccc(/C=C/C(=O)Nc3ccccc3N)cc2)C(c2nc3ccccc3[nH]2)C1 (centres unmarked) | histone deacetylase (HeLa nuclear extract) | 1.62 |
| Cc1cc(NC(=O)C2CN(C)CC2c2ccc(/C=C/C(=O)Nc3ccccc3N)cc2)ccc1Cl (centres unmarked) | histone deacetylase (HeLa nuclear extract) | 1.65 |
| CN1CC(c2ccc(/C=C/C(=O)Nc3ccccc3N)cc2)C(c2nc3cc(F)ccc3[nH]2)C1 (centres unmarked) | histone deacetylase (HeLa nuclear extract) | 1.79 |
| COCCN1CC(C(=O)Nc2ccc(Cl)cc2)C(c2ccc(/C=C/C(=O)Nc3ccccc3N)cc2)C1 (centres unmarked) | histone deacetylase (HeLa nuclear extract) | 1.47 |
| CCN1CC(C(=O)Nc2ccc(Cl)cc2)C(c2ccc(/C=C/C(=O)Nc3ccccc3N)cc2)C1 (centres unmarked) | histone deacetylase (HeLa nuclear extract) | 1.48 |

[1] CC(C)(C)N1CC(C(=O)Nc2ccc(F)cc2)C(c2ccc(/C=C/C(=O)Nc3ccccc3N)cc2)C1 (centres unmarked)
[2] Nc1ccccc1NC(=O)/C=C/c1ccc(C2CN(CCF)CC2C(=O)Nc2ccc(Cl)cc2)cc1 (racemic)
Field: entry with larger HD RP30 (relative inhibitory potency compared with SNDX-275) (options 1 / 2 ). Please respond with the label that marks your chosen entry.
1
(1: 1.70, 2: 1.09)
